Read-out: Tissue Factor, F3 (gene 2152)
Measurement Protocol: BSK_CASM3C_TissueFactor: BioMAP Diversity Plus: CASM3C Assay for Tissue Factor Biomarker Activity (AID 2283052);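 also: cell surface tissue factor protein level read by ELISA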
Stated Conditions: primary human coronary artery smooth muscle cells; actives raise or lower the signal
Calls of active or inactive are those of the source. The calls were made as follows: active = hit-call score of the fitted dose curve at least 0.9, where 1 is the maximum; inactive = score below 0.9.
Reply using exactly one outcome from T for active, F for inactive

{"Molecule": "O=C1OC2(c3ccc(O)cc3Oc3cc(O)ccc32)c2ccccc21", "Label Class": "F"}

Enquiry: Recorded test outcome, item c1ccc2c(c1)-c1ccc3ccc4cccc5cc-2c1c3c45
Return: F

Enquiry: Recorded test outcome, item CC(=O)c1ccc(C)cc1
Return: F

Enquiry: Recorded test outcome, item C[C@]12CC[C@@H]3c4ccc(O)cc4CC[C@H]3[C@@H]1CC[C@@H]2O
Return: F

Data provenance: PubChem BioAssay (EPA / NIEHS)
